- ASSAY PROTOCOL: clinical
- CONDITION NOTES: human, in vivo, 90 mg, range of intratumoral Cmax concentration
ASSAY METRIC: Cmax at 3 h

Cmax at 3 h recorded for this compound, `CCn1c(=O)c(-c2cc[nH]n2)cc2c(C)nc(N)nc21` , is 23.1 to 751 nM

###

- ASSAY PROTOCOL: clinical
- CONDITION NOTES: human, in vivo, 90 mg, median intratumoral Cmax concentration
ASSAY METRIC: Cmax at 3 h (nM)
Report the value in nM with no unit label.

Looking up `CCn1c(=O)c(-c2cc[nH]n2)cc2c(C)nc(N)nc21` , I see its Cmax at 3 h listed as 170
